Where do the numbers come from? From ChEMBL document CHEMBL1135500.

test system: Serratia marcescens; experiment: In vitro antibacterial activity against SG 621 strain of Serratia marcescens; format: functional

{"molecule": "COC(=O)Oc1cccc(C(=O)N(C)CCCN(CC(=O)NC(C(=O)NC2C(=O)N3C2SC(C)(C)C3C(=O)O)c2ccccc2)C(=O)c2cccc(OC(=O)OC)c2OC(=O)OC)c1OC(=O)OC (stereo unspecified)", "unit.info": "µg/mL", "qualifier.sign": "=", "MIC": 0.02}
{"molecule": "COC(=O)Oc1cccc(C(=O)N(CCCCn2c(=O)oc3c(OC(=O)OC)cccc3c2=O)CC(=O)NC(C(=O)NC2C(=O)N3C2SC(C)(C)C3C(=O)O)c2ccccc2)c1OC(=O)OC (stereo unspecified)", "unit.info": "µg/mL", "qualifier.sign": "<", "MIC": 0.005}
{"molecule": "CC1(C)S[C@@H]2[C@H](NC(=O)[C@H](N)c3ccccc3)C(=O)N2[C@H]1C(=O)O", "unit.info": "µg/mL", "qualifier.sign": "=", "MIC": 25}
{"molecule": "CC(=O)Oc1cccc(C(=O)N(C)CCCN(Cc2ccccc2C(=O)NC(C(=O)NC2C(=O)N3C2SC(C)(C)C3C(=O)O)c2ccccc2)C(=O)c2cccc(OC(C)=O)c2OC(C)=O)c1OC(C)=O (stereo unspecified)", "unit.info": "µg/mL", "qualifier.sign": "=", "MIC": 0.24}
{"molecule": "CC(=O)Oc1cccc(C(=O)N(C)CCCN(CC(=O)NC(C(=O)NC2C(=O)N3C2SC(C)(C)C3C(=O)O)c2ccccc2)C(=O)c2cccc(OC(C)=O)c2OC(C)=O)c1OC(C)=O (stereo unspecified)", "unit.info": "µg/mL", "qualifier.sign": "=", "MIC": 0.05}
{"molecule": "COC(=O)Oc1cc(Br)cc(C(=O)N(C)CCCN(CC(=O)NC(C(=O)NC2C(=O)N3C2SC(C)(C)C3C(=O)O)c2ccccc2)C(=O)c2cc(Br)cc(OC(=O)OC)c2OC(=O)OC)c1OC(=O)OC (stereo unspecified)", "unit.info": "µg/mL", "qualifier.sign": "=", "MIC": 0.02}

----------
tested on: Pseudomonas aeruginosa; assay: In vitro antibacterial activity against ATCC 27853 strain of Pseudomonas aeruginosa; format: functional
# label = 1 if MIC < 0.8 µg/mL else -1

{"compound": "CC(=O)Oc1cccc(C(=O)N(C)CCCN(Cc2ccccc2C(=O)NC(C(=O)NC2C(=O)N3C2SC(C)(C)C3C(=O)O)c2ccccc2)C(=O)c2cccc(OC(C)=O)c2OC(C)=O)c1OC(C)=O (stereo not drawn)", "assayed.system": "Pseudomonas aeruginosa", "assigned.label": 1}
{"compound": "CC(=O)Oc1cccc(C(=O)Nc2cc(NC(=O)c3cccc(OC(C)=O)c3OC(C)=O)cc(C(=O)NC(C(=O)NC3C(=O)N4C3SC(C)(C)C4C(=O)O)c3ccccc3)c2)c1OC(C)=O (stereo not drawn)", "assayed.system": "Pseudomonas aeruginosa", "assigned.label": -1}
{"compound": "COC(=O)Oc1cccc(C(=O)N(CCCn2c(=O)oc3c(OC(=O)OC)cccc3c2=O)C(C)CCC(=O)NC(C(=O)NC2C(=O)N3C2SC(C)(C)C3C(=O)O)c2ccccc2)c1OC(=O)OC (stereo not drawn)", "assayed.system": "Pseudomonas aeruginosa", "assigned.label": -1}
{"compound": "COC(=O)Oc1cc(Br)cc(C(=O)N(C)CCCN(CC(=O)NC(C(=O)NC2C(=O)N3C2SC(C)(C)C3C(=O)O)c2ccccc2)C(=O)c2cc(Br)cc(OC(=O)OC)c2OC(=O)OC)c1OC(=O)OC (stereo not drawn)", "assayed.system": "Pseudomonas aeruginosa", "assigned.label": 1}
{"compound": "CC1(C)S[C@@H]2[C@H](NC(=O)[C@H](NC(=O)N3CCNC3=O)c3ccccc3)C(=O)N2[C@H]1C(=O)O [AZLOCILLIN]", "assayed.system": "Pseudomonas aeruginosa", "assigned.label": -1}
{"compound": "COC(=O)Oc1cccc2c(=O)n(CCC(=O)Nc3cc(NC(=O)CCn4c(=O)oc5c(OC(=O)OC)cccc5c4=O)cc(C(=O)NC(C(=O)NC4C(=O)N5C4SC(C)(C)C5C(=O)O)c4ccc(O)cc4)c3)c(=O)oc12 (stereo not drawn)", "assayed.system": "Pseudomonas aeruginosa", "assigned.label": -1}
{"compound": "CC1(C)S[C@@H]2[C@H](NC(=O)[C@H](N)c3ccccc3)C(=O)N2[C@H]1C(=O)O [AMPICILLIN]", "assayed.system": "Pseudomonas aeruginosa", "assigned.label": -1}
{"compound": "C[C@@H](O)[C@H]1C(=O)N2C(C(=O)O)=C(S[C@@H]3CN[C@H](C(=O)N(C)C)C3)[C@H](C)[C@H]12 [MEROPENEM]", "assayed.system": "Pseudomonas aeruginosa", "assigned.label": 1}
{"compound": "CC(=O)Oc1cccc(C(=O)NCCCCN(Cc2ccc(OCC(=O)NC(C(=O)NC3C(=O)N4C3SC(C)(C)C4C(=O)O)c3ccccc3)cc2)C(=O)c2cccc(OC(C)=O)c2OC(C)=O)c1OC(C)=O (stereo not drawn)", "assayed.system": "Pseudomonas aeruginosa", "assigned.label": -1}
{"compound": "COC(=O)Oc1cc(Cl)cc(C(=O)N(C)CCCN(CC(=O)NC(C(=O)NC2C(=O)N3C2SC(C)(C)C3C(=O)O)c2ccccc2)C(=O)c2cc(Cl)cc(OC(=O)OC)c2OC(=O)OC)c1OC(=O)OC (stereo not drawn)", "assayed.system": "Pseudomonas aeruginosa", "assigned.label": 1}
{"compound": "CC(=O)Oc1cccc(C(=O)NCCCCN(Cc2ccccc2C(=O)NC(C(=O)NC2C(=O)N3C2SC(C)(C)C3C(=O)O)c2ccccc2)C(=O)c2cccc(OC(C)=O)c2OC(C)=O)c1OC(C)=O (stereo not drawn)", "assayed.system": "Pseudomonas aeruginosa", "assigned.label": 1}
{"compound": "CC(=O)Oc1cccc(C(=O)NCCCCN(CC(=O)NC(C(=O)NC2C(=O)N3C2SC(C)(C)C3C(=O)O)c2ccccc2)C(=O)c2cccc(OC(C)=O)c2OC(C)=O)c1OC(C)=O (stereo not drawn)", "assayed.system": "Pseudomonas aeruginosa", "assigned.label": 1}
{"compound": "CC(=O)Oc1cccc(C(=O)NCCCCN(CC(=O)NC(C(=O)NC2C(=O)N3C2SC(C)(C)C3C(=O)O)c2ccc(O)cc2)C(=O)c2cccc(OC(C)=O)c2OC(C)=O)c1OC(C)=O (stereo not drawn)", "assayed.system": "Pseudomonas aeruginosa", "assigned.label": 1}
{"compound": "COC(=O)Oc1cccc2c(=O)n(-c3cc(C(=O)NC(C(=O)NC4C(=O)N5C4SC(C)(C)C5C(=O)O)c4ccccc4)cc(-n4c(=O)oc5c(OC(=O)OC)cccc5c4=O)c3)c(=O)oc12 (stereo not drawn)", "assayed.system": "Pseudomonas aeruginosa", "assigned.label": -1}
{"compound": "COC(=O)Oc1cccc(C(=O)N(CCCCn2c(=O)oc3c(OC(=O)OC)cccc3c2=O)CC(=O)NC(C(=O)NC2C(=O)N3C2SC(C)(C)C3C(=O)O)c2ccccc2)c1OC(=O)OC (stereo not drawn)", "assayed.system": "Pseudomonas aeruginosa", "assigned.label": 1}
{"compound": "COC(=O)Oc1cccc(C(=O)N(CCCn2c(=O)oc3c(OC(=O)OC)cccc3c2=O)C(C)C(=O)NC(C(=O)NC2C(=O)N3C2SC(C)(C)C3C(=O)O)c2ccccc2)c1OC(=O)OC (stereo not drawn)", "assayed.system": "Pseudomonas aeruginosa", "assigned.label": -1}
{"compound": "COC(=O)Oc1cccc(C(=O)N(C)CCCN(CC(=O)NC(C(=O)NC2C(=O)N3C2SC(C)(C)C3C(=O)O)c2ccccc2)C(=O)c2cccc(OC(=O)OC)c2OC(=O)OC)c1OC(=O)OC (stereo not drawn)", "assayed.system": "Pseudomonas aeruginosa", "assigned.label": 1}
{"compound": "COC(=O)Oc1cccc2c(=O)n(CCC(=O)Nc3cc(NC(=O)CCn4c(=O)oc5c(OC(=O)OC)cccc5c4=O)cc(C(=O)NC(C(=O)NC4C(=O)N5C4SC(C)(C)C5C(=O)O)c4ccccc4)c3)c(=O)oc12 (stereo not drawn)", "assayed.system": "Pseudomonas aeruginosa", "assigned.label": 1}
{"compound": "COC(=O)Oc1cc(Cl)c(Cl)c(C(=O)N(C)CCCN(CC(=O)NC(C(=O)NC2C(=O)N3C2SC(C)(C)C3C(=O)O)c2ccccc2)C(=O)c2c(Cl)c(Cl)cc(OC(=O)OC)c2OC(=O)OC)c1OC(=O)OC (stereo not drawn)", "assayed.system": "Pseudomonas aeruginosa", "assigned.label": 1}
{"compound": "COC(=O)Oc1cccc2c(=O)n(CC(=O)Nc3cc(NC(=O)Cn4c(=O)oc5c(OC(=O)OC)cccc5c4=O)cc(C(=O)NC(C(=O)NC4C(=O)N5C4SC(C)(C)C5C(=O)O)c4ccccc4)c3)c(=O)oc12 (stereo not drawn)", "assayed.system": "Pseudomonas aeruginosa", "assigned.label": -1}
{"compound": "CC(=O)Oc1cccc(C(=O)N(C)CCCN(CC(=O)NC(C(=O)NC2C(=O)N3C2SC(C)(C)C3C(=O)O)c2ccccc2)C(=O)c2cccc(OC(C)=O)c2OC(C)=O)c1OC(C)=O (stereo not drawn)", "assayed.system": "Pseudomonas aeruginosa", "assigned.label": 1}
